test.target: T1, AXLECDHis (human, UniProt P30530 26-447)
T1 construct: theoretical mass 46 kDa used; also called extracellular domain (ECD) of human AXL (aa 1-447) with a C-terminal His tag; soluble recombinant AXL extracellular domain
T1 sequence (P30530 26-447): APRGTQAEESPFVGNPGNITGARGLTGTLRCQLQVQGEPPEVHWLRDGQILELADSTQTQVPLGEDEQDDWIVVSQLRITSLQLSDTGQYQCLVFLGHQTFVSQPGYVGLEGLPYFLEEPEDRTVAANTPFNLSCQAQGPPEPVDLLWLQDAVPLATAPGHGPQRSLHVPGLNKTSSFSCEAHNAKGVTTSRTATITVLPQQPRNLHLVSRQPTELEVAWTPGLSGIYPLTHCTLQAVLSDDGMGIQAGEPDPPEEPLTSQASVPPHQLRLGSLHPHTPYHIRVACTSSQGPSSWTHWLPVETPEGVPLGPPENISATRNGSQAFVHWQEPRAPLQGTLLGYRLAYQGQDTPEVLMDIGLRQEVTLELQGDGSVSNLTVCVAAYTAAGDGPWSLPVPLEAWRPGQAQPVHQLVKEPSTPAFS
measurement.notes: BLI (Octet), IgG on anti-human Fc sensor, AXLECDHis analyte
Listed here: items and their measured Kd.
Field: value (include unit after the number)

Examples from the recorded data:
IgG1-AXL-726 (antibody, V domains shown) VH: QVQLQQWGAGLLKPSETLSLTCAIDGGSFSGYYWSWIRQPPGKGLEWIGEISHSGRTNYNPSLKSRVTISIDTSKNQFSLKLSSVAAADTAVYYCARFITMIRGAIITHFDYWGQGALVTVSS VL: DIQMTQSPSSLSASVGDRVTITCRASQGISSWLAWYQQKPEKAPKSLIYAASSLQSGVPSRFSGSGSGTDFTLTISSLQPEDFATYYCQQYHSYPYTFGQGTKLEIK; 0.6 nM
IgG1-AXL-148 (antibody, V domains shown) VH: EVQLLESGGGLVQPGGSLRLSCAASGFTFSSYAMTWVRQAPGKGLEWVSAISISGGSTFYADSVKGRFTISRDNSKNTLYLQMNSLRAEDTAVYYCRGYSGYVYDAFDFWGQGTMVTVSS VL: DIQMTQSPSSLSASVGDRVTITCRASQGISNWLAWYQQKPEKAPKSLIYAASSLQSGVPSRFSGSGSGTDFTLTISSLQPEDFATYYCQQYNSYPLTFGGGTKVEIK; 20 nM
IgG1-AXL-733 (antibody, V domains shown) VH: QVQLVESGGGVVQPGRSLRLSCAASGFSFSTYAMHWVRQAPGKGLEWVAVISYDGDNKYSADSVKGRFTISRDNSKNTLYLQMNSLRAEDTAVYYCARGRKLGIDAFDIWGQGTMVTVSS VL: AIQLTQSPSSLSASVGDRVTITCRASQGISSALAWYQQKPGKAPKLLIYDASSLESGVPSRFSGSGSGTDFTLTISGLQPEDFATYYCQQFNSYPFTFGPGTKVDIK; 63 nM
IgG1-AXL-183 (antibody, V domains shown) VH: QVQLQQWGAGLLKPSETLSLTCAVYGGSFSGYYWSWIRQPPGKGLEWIGEINQSGSTNYNPSLKSRVTISVDTSKNQFSLKLSSVTAADTSVYYCASGNWDHFFDYWGQGTLVTVSS VL: DIQMTQSPSSVSASVGDRVTITCRASQGISSWLAWYQHKPGKAPKLLIYATSSLQSGVTSRFSGSGSGTDFTLTISSLQPEDFATYYCQQAKSFPWTFGQGTKVEIK; 10.2 nM
IgG1-AXL-183-N52Q (antibody, V domains shown, Expressed as human IgG1,κ; also called IgG1-AXL-183-N520) VH: QVQLQQWGAGLLKPSETLSLTCAVYGGSFSGYYWSWIRQPPGKGLEWIGEIQQSGSTNYNPSLKSRVTISVDTSKNQFSLKLSSVTAADTSVYYCASGNWDHFFDYWGQGTLVTVSS VL: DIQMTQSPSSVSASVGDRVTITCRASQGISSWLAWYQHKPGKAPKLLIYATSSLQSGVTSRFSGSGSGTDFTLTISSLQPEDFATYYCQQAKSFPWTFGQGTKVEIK; 24 nM

Now look at this entry.
Q: Can you share its Kd? I mean this binder: IgG1-AXL-726-M101L (antibody, V domains shown, Expressed as human IgG1,κ) VH: QVQLQQWGAGLLKPSETLSLTCAIDGGSFSGYYWSWIRQPPGKGLEWIGEISHSGRTNYNPSLKSRVTISIDTSKNQFSLKLSSVAAADTAVYYCARFITLIRGAIITHFDYWGQGALVTVSS VL: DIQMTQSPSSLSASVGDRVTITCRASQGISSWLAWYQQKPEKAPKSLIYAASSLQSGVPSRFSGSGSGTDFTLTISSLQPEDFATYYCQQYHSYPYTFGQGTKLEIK
Result: 0.3 nM
